Taken from ChEMBL document CHEMBL3870331.

system: Mycobacterium tuberculosis; experiment: Antimycobacterial activity against Mycobacterium tuberculosis H37Rv ATCC 27294 measured after 28 days by MABA method; assay type: functional; settings: H37Rv ATCC 27294, 672 h
Lab note: cut-off is 50 µM. Strictly less in MIC99 is yes. Exactly 50 µM or more is no.

INSERT INTO assay_data (chemical_structure, target_or_system, label_class) VALUES
  ('Cc1nc2ccccc2c(-c2ccccc2)c1C(=O)NCc1cccc(Cl)c1', 'Mycobacterium tuberculosis', 'no'),
  ('Cc1nc2ccccc2c(-c2ccccc2)c1C(=O)Nc1ccncc1', 'Mycobacterium tuberculosis', 'yes'),
  ('Cc1nc2ccccc2c(-c2ccccc2)c1C(=O)Nc1ccccn1', 'Mycobacterium tuberculosis', 'no'),
  ('c1ccc(-c2c3c(nc4ccccc24)CCCCC3)cc1', 'Mycobacterium tuberculosis', 'yes'),
  ('Cc1nc2ccccc2c(-c2ccccc2)c1C(=O)Nc1ccccc1OC(F)(F)F', 'Mycobacterium tuberculosis', 'yes'),
  ('Cc1ccccc1CNC(=O)c1c(C)nc2ccccc2c1-c1ccccc1', 'Mycobacterium tuberculosis', 'yes'),
  ('Cc1nc2ccccc2c(-c2ccccc2)c1C(=O)NCc1cccc(F)c1', 'Mycobacterium tuberculosis', 'yes'),
  ('COC(=O)c1c(C)nc2ccc(Cl)cc2c1-c1ccccc1', 'Mycobacterium tuberculosis', 'no');

====

system: Mycobacterium tuberculosis; test: Antimycobacterial activity against Mycobacterium tuberculosis H37Rv ATCC 27294 measured after 28 days by MABA method; type: functional; conditions: H37Rv ATCC 27294, 672 h
Lab note: cut-off is 20 µM. Strictly less in MIC99 is Fulfilled. Exactly 20 µM or more is Not fulfilled.

INSERT INTO measurements (molecule, label_class) VALUES
  ('Cc1nc2ccc(Cl)cc2c(-c2ccccc2)c1C(=O)c1ccccc1', 'Fulfilled'),
  ('Cc1nc2ccccc2c(-c2ccccc2)c1C(=O)OC(C)(C)C', 'Fulfilled'),
  ('CCOC(=O)c1c(C)nc2ccccc2c1C', 'Not fulfilled'),
  ('Cc1nc2ccccc2c(-c2ccccc2)c1C(=O)NCc1ccccc1Cl', 'Fulfilled'),
  ('Cc1nc2ccccc2c(-c2ccccc2)c1C(=O)Nc1ccccc1Br', 'Fulfilled'),
  ('Cc1nc2ccccc2c(-c2ccccc2)c1C(=O)Nc1ccccc1', 'Fulfilled'),
  ('CC1CC(=O)c2c(nc3ccccc3c2-c2ccccc2)C1 (stereo not given)', 'Not fulfilled'),
  ('Cc1nc2ccccc2c(-c2ccccc2)c1C(=O)NCc1ccccc1', 'Not fulfilled'),
  ('Cc1nc2ccccc2c(-c2ccccc2)c1C(=O)Nc1ccccc1I', 'Fulfilled'),
  ('c1ccc(-c2cc(-c3ccccc3)c3ccccc3n2)cc1', 'Fulfilled'),
  ('c1ccc(-c2c3c(nc4ccccc24)CCC3)cc1', 'Not fulfilled'),
  ('Cc1nc2ccccc2c(-c2ccccc2)c1C(=O)Nc1cccnc1Cl', 'Fulfilled'),
  ('Cc1nc2ccccc2c(-c2ccccc2)c1C(=O)c1ccccc1', 'Fulfilled'),
  ('COc1ccccc1NC(=O)c1c(C)nc2ccccc2c1-c1ccccc1', 'Not fulfilled'),
  ('Cc1nc2ccccc2c(-c2ccccc2)c1C(=O)Nc1ccc(Cl)cc1', 'Fulfilled'),
  ('Cc1nc2ccccc2c(-c2ccccc2)c1C(=O)Nc1ccc(F)cc1', 'Fulfilled'),
  ('O=C1CC(c2ccccc2)Cc2nc3ccccc3c(-c3ccccc3)c21 (stereo not given)', 'Not fulfilled'),
  ('c1ccc(-c2cc(-c3ccco3)nc3ccccc23)cc1', 'Fulfilled'),
  ('COc1ccccc1CNC(=O)c1c(C)nc2ccccc2c1-c1ccccc1', 'Not fulfilled'),
  ('Cc1nc2ccccc2c(-c2ccccc2)c1C(=O)Nc1ccc(Br)cc1', 'Not fulfilled'),
  ('Cc1nc2ccccc2c(-c2ccccc2)c1C(=O)Nc1ccccc1Cl', 'Not fulfilled'),
  ('CC1(C)CC(=O)c2c(nc3ccccc3c2-c2ccccc2)C1', 'Not fulfilled');

====

experiment: Therapeutic index, ratio of compound cytotoxic activity for HEK293T cells to MIC99 for Mycobacterium tuberculosis H37Rv ATCC 27294; type: cell-based, HEK-293T; conditions: human, read-out: TI
metric.name: selectivity ratio

INSERT INTO measurements (chemical_structure, observed_result) VALUES
  ('CCOC(=O)c1c(C)nc2ccccc2c1-c1ccccc1', '> 250');

====

We begin with a simple list: items and their reported cytotoxicity at 72 h, 50 ug/ml.
assay: Cytotoxicity against HEK293T cells assessed as inhibition of cell viability at 50 ug/ml after 72 hrs by MTT assay relative to control; format: toxicity, cell-based, HEK-293T; conditions: human, read-out: INH
metric.name: cytotoxicity at 72 h, 50 ug/ml (%)

INSERT INTO measurements (compound, value_units, observed_result) VALUES
  ('c1ccc(-c2c3c(nc4ccccc24)CCCCCC3)cc1', '%', 31.1),
  ('Cc1nc2ccccc2c(-c2ccccc2)c1C(=O)c1ccccc1', '%', 22.1),
  ('Cc1nc2ccccc2c(-c2ccccc2)c1C(=O)OC(C)(C)C', '%', 13.6),
  ('c1ccc(-c2cc(-c3ccccc3)c3ccccc3n2)cc1', '%', 18.1),
  ('CC1(C)CC(=O)c2c(nc3ccccc3c2-c2ccccc2)C1', '%', 22),
  ('CC1CC(=O)c2c(nc3ccccc3c2-c2ccccc2)C1 (configuration not stated)', '%', 28),
  ('COC(=O)c1c(C)nc2ccccc2c1-c1ccccc1', '%', 25.6),
  ('CCOC(=O)c1c(C)nc2ccccc2c1-c1ccccc1', '%', 25.6),
  ('Cc1nc2ccccc2c(-c2ccccc2)c1C(=O)Nc1cccnc1Cl', '%', 11.3),
  ('CC(=O)c1c(C)nc2ccc(Cl)cc2c1-c1ccccc1', '%', 19.9),
  ('Cc1nc2ccccc2c(-c2ccccc2)c1C(=O)Nc1ccc(F)cc1', '%', 12.5),
  ('c1ccc(-c2cc(-c3cccs3)nc3ccccc23)cc1', '%', 25.5);

====

test system: Mycobacterium tuberculosis; assay: Antimycobacterial activity against Mycobacterium tuberculosis H37Rv ATCC 27294 measured after 28 days by MABA method; assay type: functional; conditions: H37Rv ATCC 27294, 672 h
We begin with a simple list: items and their reported MIC99.
metric.name: MIC99

INSERT INTO measurements (chemical_structure, observed_result) VALUES
  ('CCOC(=O)c1c(C)nc2ccc(Cl)cc2c1-c1ccccc1', '76.7 µM'),
  ('COC(=O)c1c(C)nc2ccccc2c1-c1ccccc1', '45.1 µM'),
  ('Cc1nc2ccccc2c(-c2ccccc2)c1C(=O)NCc1ccc(C(C)(C)C)cc1', '3.82 µM'),
  ('CC(=O)c1c(C)nc2ccc(Cl)cc2c1-c1ccccc1', '10.6 µM'),
  ('O=C1CCCc2nc3ccccc3c(-c3ccccc3)c21', '45.7 µM'),
  ('c1ccc(-c2c3c(nc4ccccc24)CCCC3)cc1', '48.2 µM'),
  ('c1ccc(-c2cc(-c3cccs3)nc3ccccc23)cc1', '21.8 µM'),
  ('CCOC(=O)c1c(C)nc2ccccc2c1-c1ccccc1', '0.69 µM'),
  ('c1ccc(-c2c3c(nc4ccccc24)CCCCCC3)cc1', '10.9 µM'),
  ('Cc1nc2ccccc2c(-c2ccccc2)c1C(=O)Nc1ccccc1F', '35.1 µM'),
  ('CC(=O)c1c(C)nc2ccccc2c1-c1ccccc1', '47.8 µM'),
  ('COc1ccc(NC(=O)c2c(C)nc3ccccc3c2-c2ccccc2)cc1', '8.48 µM');

====

test: Cytotoxicity against HEK293T cells assessed as inhibition of cell viability at 50 ug/ml after 72 hrs by MTT assay relative to control; type: toxicity, cell-based, HEK-293T; details: human, read-out: INH
# cytotoxicity at 72 h, 50 ug/ml binned as 0 (below 20%), 1 (20% to below 30%), 2 (30% or more)

INSERT INTO assay_data (chemical_structure, label_class) VALUES
  ('Cc1nc2ccccc2c(-c2ccccc2)c1C(=O)Nc1ccc(Cl)cc1', 0),
  ('COc1ccc(NC(=O)c2c(C)nc3ccccc3c2-c2ccccc2)cc1', 2),
  ('Cc1ccccc1CNC(=O)c1c(C)nc2ccccc2c1-c1ccccc1', 1),
  ('Cc1nc2ccccc2c(-c2ccccc2)c1C(=O)NCc1ccc(C(C)(C)C)cc1', 2),
  ('Cc1nc2ccccc2c(-c2ccccc2)c1C(=O)Nc1ccncc1', 0),
  ('Cc1nc2ccccc2c(-c2ccccc2)c1C(=O)NCc1ccccc1Cl', 0),
  ('Cc1nc2ccccc2c(-c2ccccc2)c1C(=O)Nc1ccccc1I', 0),
  ('Cc1nc2ccccc2c(-c2ccccc2)c1C(=O)Nc1ccccc1Br', 0),
  ('Cc1nc2ccc(Cl)cc2c(-c2ccccc2)c1C(=O)c1ccccc1', 1),
  ('c1ccc(-c2cc(-c3ccco3)nc3ccccc23)cc1', 2),
  ('Cc1nc2ccccc2c(-c2ccccc2)c1C(=O)Nc1ccccc1', 1);
